Each recorded value in this set is attributed to paper PMC5540273.

# System: PKMYT1
# Condition Info: concentration: 1 μM, replicates: in singlicate; n = 1;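 note: KINOMEscan kinase panel screen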
Metric Name: %Inh (%)
Number in %, nothing else.

Guide cases for %Inh, answers given:
1) COc1cccc(-n2cnc3c(N)ncnc32)c1 [SKF-97416]
10
2) Nc1nc(-c2ccccc2F)c(-c2ccnc3ccccc23)s1 [GW560459]
0
3) Cc1nnc(-c2ccc(C)c(-c3ccc(C(=O)O)cc3)c2)o1 [GW608005]
0
4) Fc1cccc(CSc2nnc(-c3ccc4c(c3)CCO4)o2)c1
24

Give the reported %Inh for this molecule. CN1C(=O)C(Nc2cc(Cl)c(O)c(Cl)c2)=C(c2ccc(Cl)cc2)C1=O [SB-404321] 0

Give the reported %Inh for this molecule. "CCC(=O)c1c(-c2ccccc2)c2cc(Cl)ccc2c(=O)n1Cc1cc(C(=O)NC2CC2)n(C)n1" 5

Give the reported %Inh for this molecule. OCCCNc1nccc(-c2c(-c3cccc(C(F)(F)F)c3)nn3cc(C(F)(F)F)ccc23)n1 [GW630813] 0

Give the reported %Inh for this molecule. COc1cc(Nc2nccc(N3CCC(NC(=O)C(C)c4ccc(Cl)cc4)C3)n2)cc(OC)c1OC (stereo not shown) [GSK1379757] 0

Give the reported %Inh for this molecule. Cc1cc(Nc2nc(-c3cccc(C)n3)nc3ccccc23)ccn1 [GW872411] 24

Give the reported %Inh for this molecule. "CCc1ccc(-c2ccc3c(c2)-c2nn(C)cc2S(=O)(=O)N3C)cc1" 0

Give the reported %Inh for this molecule. COc1ccc(Nc2nccc(N3CCC(NS(=O)(=O)c4ccc(NC(C)=O)cc4)C3)n2)cc1 (stereo not shown) [GSK1379729] 12

Give the reported %Inh for this molecule. "CCC(=O)c1c(-c2ccccc2)c2cc(Cl)ccc2c(=O)n1Cc1ccc(C(=O)O)cc1" 1

Give the reported %Inh for this molecule. "CCc1nc(-c2cccc(C)c2)c(-c2ccncc2)s1" 8

Give the reported %Inh for this molecule. O=C(Nc1n[nH]c2nc(-c3ccccc3)c(Br)cc12)C1CC1 [SB-708998] 8

Give the reported %Inh for this molecule. COc1cc2nccc(Nc3ccc(OCc4ccc(NC(C)=O)cc4)cc3)c2cc1OC.Cl [GW440135] 0

Give the reported %Inh for this molecule. CCn1c(-c2ccoc2)nc2cnccc21 [SB-733887] 0

Give the reported %Inh for this molecule. "Cn1c(=O)c(F)c(Nc2ccc(I)cc2F)c2c(=O)n(OC[C@H](O)CO)cnc21" 0

====

# System: SRMS
# Condition Info: concentration: 1 μM, replicates: in singlicate; n = 1
Metric Name: %Inh (%)
Number in %, nothing else.

1) Nc1ncnc2c1ncn2-c1cccc(F)c1
14
2) Cc1cccc(-c2nc(Nc3ccc4c(cnn4C)c3)c3ccccc3n2)n1
0
3) Cl.NS(=O)(=O)c1cccc(Nc2cc(-c3ccc(F)cc3)n[nH]2)c1
31
4) Cn1c(=O)c(F)c(Nc2ccc(I)cc2F)c2c(=O)n(OC[C@H](O)CO)cnc21
0
5) Nc1n[nH]c2ncc(-c3ccccc3)cc12
8

Give the reported %Inh for this compound. "CCC(=O)c1c(-c2ccccc2)c2cc(Cl)ccc2c(=O)n1Cc1cc(S(C)(=O)=O)n(CC(F)F)n1" 0

Give the reported %Inh for this compound. "O=C(Nc1n[nH]c2cc(-c3ccccc3F)ccc12)C1CC1" 14
